Source listed as ChEMBL document CHEMBL1144940.

Bridge positions count the residues as written; N and C are the ends. Square brackets hold non-standard residues; d marks the D form. Peptide text beside a SMILES is read from it. Pen = CC(C)(S)[C@H](N)C(=O)O; Nle = CCCC[C@H](N)C(=O)O
Observed Ki for Melanocortin receptor 3 (Homo sapiens), reported per entry below.
Give your result in nM as a bare value.

Consider the worked cases shown below.
compound: CCCC[C@H](NC(=O)[C@@H](NC(=O)[C@@H](N)Cc1ccc(O)cc1)C(C)C)C(=O)NCC(=O)N[C@@H](Cc1c[nH]cn1)C(=O)N[C@H](Cc1ccc2ccccc2c1)C(=O)N[C@@H](CCCN=C(N)N)C(=O)N[C@H](Cc1ccc2ccccc2c1)C(=O)N[C@@H](CC(=O)O)C(=O)N[C@@H](CCCN=C(N)N)C(=O)N[C@@H](Cc1ccccc1)C(=O)NCC(N)=O
quantity.unit: nM
Ki: 12

compound: CCCC[C@H](NC(=O)[C@@H](NC(=O)[C@@H](N)Cc1ccc(O)cc1)C(C)C)C(=O)NCC(=O)N[C@@](C)(Cc1ccccc1)C(=O)N[C@@H](Cc1ccccc1)C(=O)N[C@@H](CCCN=C(N)N)C(=O)N[C@H](Cc1ccc2ccccc2c1)C(=O)N[C@@H](CC(=O)O)C(=O)N[C@@H](CCCN=C(N)N)C(=O)N[C@@H](Cc1ccccc1)C(=O)NCC(N)=O
quantity.unit: nM
Ki: 1400

# evaluate next
The compound identified as CCCC[C@H](NC(=O)[C@@H](NC(=O)[C@@H](N)Cc1ccc(O)cc1)C(C)C)C(=O)N[C@@H]1C(=O)N[C@@H](Cc2c[nH]cn2)C(=O)N[C@@H](Cc2ccccc2)C(=O)N[C@@H](CCCN=C(N)N)C(=O)N[C@@H](Cc2c[nH]c3ccccc23)C(=O)N[C@H](C(=O)N[C@@H](CCCN=C(N)N)C(=O)N[C@@H](Cc2ccccc2)C(=O)NCC(N)=O)CSSC1(C)C (H-YV[Nle][Pen]HFRWCRFG-NH2; disulfide 4-9) registered its Ki at 150
